# protocol summary: inhibitors of mutant huntingtin aggregation, primary screen, imaging, exon1htt(103Q)mCFP cells, high-content imaging (AID 483);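 also: compound exposure lasted 3 days before fixation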
# details: exon1htt(103Q)mCFP cell line, aggregate imaging, at 2 µM; hits give high values
// reported inhibition of aggregation for each item listed
endpoint name: inhibition of aggregation (%)

> print(dat)
                                   compound              endpoint.name  readout.value
1  CCOc1cccc(-c2nnc3sc(COc4ccc(OC)cc4)nn23)c1  inhibition of aggregation           -2.2
2  CCOC(=O)c1cc2c(=O)n3cccc(C)c3nc2n(CC2CCCO2)c1=NC(C)=O (configuration not stated)  inhibition of aggregation           -1.4
3  Cc1cc(C)c(C(=O)CSc2nnc(-c3ccccc3Br)o2)cc1C  inhibition of aggregation           -0.1
4  COc1ccc(CCNC(=O)C2CC(=O)N(c3ccccc3)C2)cc1OC (configuration not stated)  inhibition of aggregation           -5.4
5            Cn1c(-c2ccccc2)cc(=O)c2ccccc21  inhibition of aggregation            2.5
6  COc1cccc(-c2noc(C3CCCN(C(=O)Cc4ccccc4)C3)n2)c1 (configuration not stated)  inhibition of aggregation            5.5
7  CCn1c(=O)c(=O)[nH]c2cc(C(=O)N3CCN(c4ccccc4F)CC3)ccc21  inhibition of aggregation          -40.8
